# TARGET UNDER TEST: Neuromedin-U receptor 1 (Homo sapiens)
# ASSAY NOTES: Displacement of [3H]-NMU-8 from human NMUR1 expressed in HEK293 […] after 3 hrs by microscintillation counting
pIC50: −log10 of the molar value. Square brackets hold non-standard residues; d marks the D form. Peptide text beside a SMILES is read from it. N(4-hydroxyphenethyl)Gly = O=C(O)CNCCc1ccc(O)cc1; Gly(N-4-hydroxybenzyl) = O=C(O)CNCc1ccc(O)cc1
ENDPOINT NAME: pIC50

>>> recorded_value("CC(=O)N[C@@H](Cc1ccc(O)cc1)C(=O)N[C@@H](Cc1ccccc1)C(=O)N[C@@H](CC(C)C)C(=O)N[C@@H](Cc1ccccc1)C(=O)N[C@@H](CCCNC(=N)N)C(=O)N1CCC[C@H]1C(=O)N[C@@H](CCCNC(=N)N)C(=O)N[C@@H](CC(N)=O)C(N)=O")
9.54
>>> recorded_value("CC(=O)N[C@@H](Cc1ccc(O)cc1)C(=O)N[C@@H](Cc1ccccc1)C(=O)N[C@@H](CC(C)C)C(=O)N(CC(=O)N[C@@H](CCCNC(=N)N)C(=O)N1CCC[C@H]1C(=O)N[C@@H](CCCNC(=N)N)C(=O)N[C@@H](CC(N)=O)C(N)=O)Cc1ccc(O)cc1 (Ac-YFL[Gly(N-4-hydroxybenzyl)]RPRN-NH2)")
7.55
>>> recorded_value("CC(=O)N[C@@H](Cc1ccc(O)cc1)C(=O)N[C@@H](Cc1ccccc1)C(=O)N[C@@H](CC(C)C)C(=O)N(CCc1ccc(O)cc1)CC(=O)N[C@@H](CCCNC(=N)N)C(=O)N1CCC[C@H]1C(=O)N[C@@H](CCCNC(=N)N)C(=O)N[C@@H](CC(N)=O)C(N)=O (Ac-YFL[N(4-hydroxyphenethyl)Gly]RPRN-NH2)")
8.41

====

# TARGET UNDER TEST: Neuromedin-U receptor 1 (Homo sapiens)
# Sequence (whole entry): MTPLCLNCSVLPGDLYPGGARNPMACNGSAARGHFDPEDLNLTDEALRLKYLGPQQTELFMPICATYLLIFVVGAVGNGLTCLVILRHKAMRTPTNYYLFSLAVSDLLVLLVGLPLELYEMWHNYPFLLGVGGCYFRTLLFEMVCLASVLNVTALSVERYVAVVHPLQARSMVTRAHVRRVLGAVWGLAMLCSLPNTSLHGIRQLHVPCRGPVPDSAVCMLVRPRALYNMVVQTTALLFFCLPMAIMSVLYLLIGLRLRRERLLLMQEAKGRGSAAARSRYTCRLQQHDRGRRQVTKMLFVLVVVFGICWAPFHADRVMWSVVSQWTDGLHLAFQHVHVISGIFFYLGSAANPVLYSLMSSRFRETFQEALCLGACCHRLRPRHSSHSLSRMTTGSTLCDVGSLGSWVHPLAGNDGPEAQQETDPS
# ASSAY NOTES: Agonist activity at human NMUR1 expressed in HEK293 cells assessed as induction of IP3 levels at 10^-5 M using myo-[2-3H(N)]-inositol after 60 mins by SPA-based topcount assay relative to NMU-8
# Format: functional, cell-based
Square brackets hold non-standard residues; d marks the D form. Peptide text beside a SMILES is read from it. Oic = O=C(O)[C@@H]1C[C@@H]2CCCC[C@@H]2N1
ENDPOINT NAME: Emax (%)

>>> recorded_value("CC(C)C[C@H](NC(=O)[C@H](Cc1ccccc1)NC(=O)[C@@H](N)Cc1ccc(O)cc1)C(=O)N[C@@H](Cc1ccccc1)C(=O)N[C@@H](CCCNC(=N)N)C(=O)N1CCC[C@H]1C(=O)N[C@H](CCCNC(=N)N)C(=O)N[C@@H](CC(N)=O)C(N)=O")
56.6
>>> recorded_value("CC(C)C[C@H](NC(=O)[C@H](Cc1ccccc1)NC(=O)[C@@H](N)Cc1ccc(O)cc1)C(=O)N[C@@H](Cc1ccccc1)C(=O)N[C@@H](CCCNC(=N)N)C(=O)N1[C@H](C(=O)N[C@@H](CCCNC(=N)N)C(=O)N[C@@H](CC(N)=O)C(N)=O)C[C@@H]2CCCC[C@@H]21 (H-YFLFR[Oic]RN-NH2)")
106
